All values here come from patent US20050222146A1.

target: aggrecanase-1 (Homo sapiens, UniProt O75173)
Sequence (O75173 213-837, species assumed): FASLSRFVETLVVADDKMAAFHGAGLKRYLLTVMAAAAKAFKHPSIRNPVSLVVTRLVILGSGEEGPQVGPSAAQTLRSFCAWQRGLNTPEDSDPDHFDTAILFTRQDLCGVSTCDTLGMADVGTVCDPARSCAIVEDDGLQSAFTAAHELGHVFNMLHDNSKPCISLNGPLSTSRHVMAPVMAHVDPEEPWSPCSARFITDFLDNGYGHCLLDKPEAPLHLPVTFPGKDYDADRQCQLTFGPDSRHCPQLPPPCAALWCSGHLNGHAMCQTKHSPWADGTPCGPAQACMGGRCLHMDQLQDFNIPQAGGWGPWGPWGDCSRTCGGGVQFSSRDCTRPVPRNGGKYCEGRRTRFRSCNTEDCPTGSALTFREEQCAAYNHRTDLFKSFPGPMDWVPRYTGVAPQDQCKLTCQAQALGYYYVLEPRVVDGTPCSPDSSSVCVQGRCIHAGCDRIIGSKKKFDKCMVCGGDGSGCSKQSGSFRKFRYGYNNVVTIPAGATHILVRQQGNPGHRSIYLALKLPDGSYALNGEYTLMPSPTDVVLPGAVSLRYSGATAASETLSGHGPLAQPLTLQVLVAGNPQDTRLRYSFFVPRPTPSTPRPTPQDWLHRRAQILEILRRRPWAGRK
pIC50: −log10 of the molar value.
Assay Readout: pIC50

Provide one value: measured pIC50 of CN1CCN(C(=O)CN([C@@]2(C(=O)O)C[C@@H]2c2ccccc2)S(=O)(=O)c2ccc(-c3ccc(Cl)cc3)s2)CC1 [Example 2-11]
≤ 6.00

// fetch pIC50 given entry CC(C)(C)OC(=O)N1CCC(Oc2cccc([C@H]3C[C@]3(C(=O)O)N(CC(=O)O)S(=O)(=O)c3ccc(-c4ccc(Cl)cc4)cc3)c2)CC1 (relative stereo) [Example 1-67]
> 7.00

Name the recorded pIC50 of the molecule listed here: O=C(O)CN([C@]1(C(=O)O)C[C@H]1c1cccc(OC2CCNCC2)c1)S(=O)(=O)c1ccc(-c2ccc(Cl)cc2)cc1 (relative stereo) [Example 1-68]
> 6.00

Kindly indicate its recorded pIC50. Item: O=C(O)c1nccn1CCN([C@]1(C(=O)O)C[C@H]1c1ccccc1)S(=O)(=O)c1ccc(-c2ccc(Cl)cc2)cc1 (relative stereo) [Example 1-78]
> 6.00

Quickly give me recorded pIC50 for O=C(O)c1cnn(CCN(C2(C(=O)O)CC2c2ccccc2)S(=O)(=O)c2ccc(-c3ccc(Cl)cc3)cc2)c1 (stereo not shown) [Example 1-79]
> 7.00

Find the measured pIC50 of O=C(O)[C@@]1(N(CCO)S(=O)(=O)c2ccc(-c3ccc(Cl)cc3)cc2)C[C@H]1c1cccc(Oc2ccccc2)c1 (relative stereo) [Example 1-114] and report it.
> 6.00

State its pIC50: O=C(O)CN(C1(C(=O)O)C[C@H]1Cc1ccccc1)S(=O)(=O)c1ccc(-c2ccc(Cl)cc2)cc1 (stereo in doubt) [Example 1-3]
> 6.00

Determine from records and report pIC50 for O=C(O)[C@@]1(N(Cc2noc(=O)[nH]2)S(=O)(=O)c2ccc(-c3ccc(Cl)cc3)cc2)C[C@H]1c1cccc(Oc2ccccc2)c1 (relative stereo) [Example 1-72]
> 7.00

Identify measured pIC50 corresponding to O=C(O)[C@@]1(N(CCCO)S(=O)(=O)c2ccc(-c3ccc(Cl)cc3)s2)C[C@H]1c1ccccc1 [Example 2-18]
≤ 6.00

* * *

Target sequence: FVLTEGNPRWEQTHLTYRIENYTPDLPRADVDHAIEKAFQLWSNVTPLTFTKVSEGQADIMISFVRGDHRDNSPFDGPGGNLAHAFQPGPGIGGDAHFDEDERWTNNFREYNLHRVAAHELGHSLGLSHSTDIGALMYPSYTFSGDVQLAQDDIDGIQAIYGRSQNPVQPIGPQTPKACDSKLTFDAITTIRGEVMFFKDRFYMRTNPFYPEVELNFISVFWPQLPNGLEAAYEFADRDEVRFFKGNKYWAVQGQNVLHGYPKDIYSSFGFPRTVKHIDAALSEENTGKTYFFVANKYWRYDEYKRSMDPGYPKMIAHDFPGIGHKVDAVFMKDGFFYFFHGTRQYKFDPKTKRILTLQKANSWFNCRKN
pIC50: −log10 of the molar value.
Reported pIC50 values for a set of compounds

O=C(O)c1cccn1CCN([C@]1(C(=O)O)C[C@H]1c1ccccc1)S(=O)(=O)c1ccc(-c2ccc(Cl)cc2)cc1 (relative stereo) | ≤ 5.00
O=C(CO)NCCN([C@]1(C(=O)O)C[C@H]1c1ccccc1)S(=O)(=O)c1ccc(-c2ccc(Cl)cc2)cc1 (relative stereo) | ≤ 5.00

For the compound O=C(O)[C@@]1(N(Cc2nsc(=O)[nH]2)S(=O)(=O)c2ccc(-c3ccc(Cl)cc3)cc2)C[C@H]1c1ccccc1 (relative stereo) , give its reported pIC50.
≤ 5.00

Provide only the value of recorded pIC50 for O=C(O)[C@@]1(N(CCNS(=O)(=O)C(F)(F)F)S(=O)(=O)c2ccc(-c3ccc(Cl)cc3)cc2)C[C@H]1c1cccc(NCCN2CCCCC2)c1 (relative stereo)
≤ 5.00

Indicate its recorded pIC50; the compound in question is CS(=O)(=O)NC(=O)CN([C@]1(C(=O)O)C[C@H]1c1ccccc1)S(=O)(=O)c1ccc(-c2ccc(Cl)cc2)cc1 (relative stereo)
≤ 5.00
